- ASSAY_SUMMARY: Chemical stability pH dependent at 25° C.
- Assay type: physicochemical
- SETUP_CONDITIONS: Buffer pH 7.0, 25° C.
MEASURED_METRIC: First order rate constant

CCCCCc1cc(OC(=O)[C@@H](N)Cc2c[nH]c3ccccc23)c2c(c1)OC(C)(C)[C@@H]1CCC(C)=C[C@@H]21 [THC-Tryptophanate (10), Δ^9-THC-tryptophinate]; 0.03803 h⁻¹
CCCCCc1cc(OC(=O)C(NC(=O)CCC(=O)O)C(C)C)c2c(c1)OC(C)(C)C1CCC(C)=CC21 (stereo not drawn) [THC-Valinate-HS (15), THC-valinate-hemisuccinate]; Stable
CCCCCc1cc(OC(=O)CCCc2ccc(NC(=O)CCC(=O)O)cc2)c2c(c1)OC(C)(C)[C@@H]1CCC(C)=C[C@@H]21; Stable

FYI, the data here is from patent US9630941B2.
